Can you tell me Functional assay Cross-linked by F(ab′)2 fragment IL-8 for the items I'm about to list?
Biological target: T1, CD134 expressed on the cell surface of HT1080_OX40 cells (human, UniProt P43489 29-277); note: test concentration or dose not given here
T1 sequence (looked up): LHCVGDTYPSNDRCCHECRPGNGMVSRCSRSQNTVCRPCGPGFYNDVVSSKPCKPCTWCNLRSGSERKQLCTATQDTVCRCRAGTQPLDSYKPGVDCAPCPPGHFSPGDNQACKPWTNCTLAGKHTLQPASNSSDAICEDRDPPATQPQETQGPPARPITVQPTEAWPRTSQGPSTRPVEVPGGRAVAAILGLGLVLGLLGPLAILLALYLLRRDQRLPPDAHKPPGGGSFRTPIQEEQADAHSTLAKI
Assay: cell-based or functional assay
Provide the reading as a plain figure in abs. corr..

Query (binder): P018.S.12.A.C05 (antibody, V domains shown, V regions on human Ig constant parts; also called AB134_65) VH: QSLEESGGRLVTPGTPLTLTCTASGFSLSNYYMNWVRQAPGKGLEWIGIIDKSGSAYYASWARGRFTISKTSTTVGLKIPSPTTEDTATYFCARGYGGYADHGLGLWGQGTLVTVSS VL: DVVMTQTPASVSEPVGGTVTIKCQASQSIAGWLAWYQQKPGQPPKLLIYQASKLASGVPSRFSGSGSGTEYTLTISDLESDDAATYYCQCTYGSGSGSNGFGGGTEVVVK ; field requested: Functional assay Cross-linked by F(ab′)2 fragment IL-8
1.65

Query (binder): P018.S.04.A.H05 (antibody, V domains shown, V regions on human Ig constant parts; also called AB134_15) VH: QSVEESGGRLVTPGTPLTLTCTVSGFSLSSYAMGWVRQAPGKGLEWIGWINTAGGTDYTSWAKGRFTISKTSTTVDLKVTSLTTEDTATYFCARYDYYYFDLWGQGTLVTVSS VL: AQVLTQTASSVSAAVGGTVTISCQSSQSVYDNNWLAWYQQKPGQPPKLLIYSASTLASGVPSRFKGSGSGTEFTLTISDLESDDAAAYYCHGVYSGSIHAFGGGTEVVVI ; field requested: Functional assay Cross-linked by F(ab′)2 fragment IL-8
2.39

Query (binder): P018.S.12.A.G05 (antibody, V domains shown, V regions on human Ig constant parts; also called AB134_87) VH: QSVEESGGRLVTPGTPLTLTCTVSGFSLSTYGMSWVRQAPGKGLEWIGIIDGGDSPYYASWAEGRFTISKTSTTVDLKITSPTTEDTATYFCARIAGSNHGPFDLWGPGTLVTVSS VL: DVVMTQTPASVSEPVGGTVTINCQASEFISNYLAWYQQKPGQPPKLLIYGASTLASGVPSRFKGSGSGTDFTLTISDLESADAATYYCQCTAYGSSYVGFGGGTEVVVK ; field requested: Functional assay Cross-linked by F(ab′)2 fragment IL-8
2.19
